# TEST_SYSTEM: Sodium-dependent noradrenaline transporter (Homo sapiens, UniProt P23975)
# Sequence (P23975 whole entry): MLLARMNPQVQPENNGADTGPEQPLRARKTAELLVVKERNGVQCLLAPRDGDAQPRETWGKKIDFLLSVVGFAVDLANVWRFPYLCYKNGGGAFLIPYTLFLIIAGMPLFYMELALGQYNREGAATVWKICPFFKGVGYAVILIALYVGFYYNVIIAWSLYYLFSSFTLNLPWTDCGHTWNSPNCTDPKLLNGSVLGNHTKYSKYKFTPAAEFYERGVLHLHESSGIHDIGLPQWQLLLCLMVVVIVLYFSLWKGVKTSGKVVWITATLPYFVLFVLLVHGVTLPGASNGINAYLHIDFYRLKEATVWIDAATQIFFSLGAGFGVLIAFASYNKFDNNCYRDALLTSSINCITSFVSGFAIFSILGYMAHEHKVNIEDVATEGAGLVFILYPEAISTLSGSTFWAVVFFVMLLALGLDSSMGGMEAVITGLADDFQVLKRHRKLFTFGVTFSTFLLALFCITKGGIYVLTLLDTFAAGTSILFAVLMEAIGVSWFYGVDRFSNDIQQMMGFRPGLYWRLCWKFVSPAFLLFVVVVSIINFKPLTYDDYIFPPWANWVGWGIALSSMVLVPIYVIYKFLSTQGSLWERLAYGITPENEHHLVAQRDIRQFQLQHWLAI
READOUT_KIND: Ki (µM)

1) C/C=C1/CN2CC[C@]34C(=C(C(=O)OC)[C@H]1C[C@H]23)Nc1ccc(I)cc14 :: 3.44

* * *

# TEST_SYSTEM: UniProt P28223
# Sequence (P28223 whole entry): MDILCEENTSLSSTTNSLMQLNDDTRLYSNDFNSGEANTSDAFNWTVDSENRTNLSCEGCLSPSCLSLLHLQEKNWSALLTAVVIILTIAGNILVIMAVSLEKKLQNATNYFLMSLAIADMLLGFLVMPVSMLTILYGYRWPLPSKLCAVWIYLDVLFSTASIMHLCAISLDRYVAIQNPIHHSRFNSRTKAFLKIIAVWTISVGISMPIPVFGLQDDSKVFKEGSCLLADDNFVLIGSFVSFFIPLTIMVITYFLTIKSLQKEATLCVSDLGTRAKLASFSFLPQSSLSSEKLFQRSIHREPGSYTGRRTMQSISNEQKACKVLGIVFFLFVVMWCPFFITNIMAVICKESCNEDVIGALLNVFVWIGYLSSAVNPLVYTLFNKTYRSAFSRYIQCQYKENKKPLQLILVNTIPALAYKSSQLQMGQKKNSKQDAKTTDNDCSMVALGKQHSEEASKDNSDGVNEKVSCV
READOUT_KIND: Ki (nM)

1. C/C=C1/CN2CC[C@]34C(=C(C(=O)OC)[C@H]1C[C@H]23)Nc1ccc(I)cc14 :: 2310

* * *

# TEST_SYSTEM: Alpha-1B adrenergic receptor (Homo sapiens, UniProt P35368)
# Sequence (P35368 whole entry): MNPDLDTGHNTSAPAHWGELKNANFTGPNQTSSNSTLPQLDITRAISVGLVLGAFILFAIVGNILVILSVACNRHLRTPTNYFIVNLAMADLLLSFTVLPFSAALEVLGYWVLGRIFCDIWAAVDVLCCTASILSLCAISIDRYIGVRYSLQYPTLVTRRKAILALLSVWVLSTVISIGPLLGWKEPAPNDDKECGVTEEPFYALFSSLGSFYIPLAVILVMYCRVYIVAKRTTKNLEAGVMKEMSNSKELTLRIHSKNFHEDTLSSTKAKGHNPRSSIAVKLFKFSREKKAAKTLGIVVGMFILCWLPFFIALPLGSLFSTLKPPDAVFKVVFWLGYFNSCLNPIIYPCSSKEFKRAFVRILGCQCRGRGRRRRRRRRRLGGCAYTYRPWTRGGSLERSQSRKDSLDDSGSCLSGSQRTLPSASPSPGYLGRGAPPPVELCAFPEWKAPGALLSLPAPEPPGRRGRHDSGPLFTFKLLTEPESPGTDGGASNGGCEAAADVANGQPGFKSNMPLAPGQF
pKi: −log10 of the molar value.
READOUT_KIND: pKi

1) C/C=C1/CN2CC[C@]34C(=C(C(=O)OC)[C@H]1C[C@H]23)Nc1ccc(Br)cc14 :: 5.54
2) C/C=C1/CN2CC[C@]34C(=C(C(=O)OC)[C@H]1C[C@H]23)Nc1ccc(I)cc14 :: 5.70

* * *

# TEST_SYSTEM: Kappa-type opioid receptor (Homo sapiens)
# Sequence (P41145 whole entry): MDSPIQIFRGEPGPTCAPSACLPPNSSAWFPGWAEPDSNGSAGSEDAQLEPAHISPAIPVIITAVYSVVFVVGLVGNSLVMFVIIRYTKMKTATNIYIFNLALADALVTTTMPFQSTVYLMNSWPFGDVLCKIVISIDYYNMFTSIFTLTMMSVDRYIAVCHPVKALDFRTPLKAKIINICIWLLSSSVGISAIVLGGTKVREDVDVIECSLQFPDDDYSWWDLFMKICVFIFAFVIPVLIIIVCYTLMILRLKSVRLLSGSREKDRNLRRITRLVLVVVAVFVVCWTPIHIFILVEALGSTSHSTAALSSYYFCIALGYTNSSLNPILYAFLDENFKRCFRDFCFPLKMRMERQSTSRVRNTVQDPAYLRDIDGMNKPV
# TEST_DETAILS: Agonist activity at human kappa opioid receptor expressed in CHO-K1 cells assessed as inhibition of forskolin-stimulated cAMP accumulation by HitHunter assay based luminescence analysis
A collection of compounds and their measured EC50
READOUT_KIND: EC50 (µM)

1. C/C=C1/CN2CC[C@]34C(=C(C(=O)OC)[C@H]1C[C@H]23)Nc1ccccc14 :: 1.2
2. C/C=C1/CN2CC[C@]34C(=C(C(=O)OC)[C@H]1C[C@H]23)Nc1ccc(I)cc14 :: 0.0057
3. C/C=C1/C[N+]2(CC3CC3)CC[C@]34C(=C(C(=O)OC)[C@H]1C[C@@H]32)Nc1ccccc14 (some centres undefined) :: 4.7
4. C/C=C1/C[N+]2(C)CC[C@]34C(=C(C(=O)OC)[C@H]1C[C@@H]32)Nc1ccc(Br)cc14 (some centres undefined) :: 0.94
5. C=CC[N+]12CC[C@]34C(=C(C(=O)OC)[C@@H](C[C@@H]31)/C(=C\C)C2)Nc1ccc(Br)cc14 (some centres undefined) :: 0.65
6. C/C=C1/CN2CC[C@]34C(=C(C(=O)OC)[C@H]1C[C@H]23)Nc1ccc([N+](=O)[O-])cc14 :: 0.16
7. CC[C@@H]1CN2CC[C@]34C(=C(C(=O)OC)[C@H]1C[C@H]23)Nc1ccccc14 :: 1.6
8. C/C=C1/CN2CC[C@]34C(=C(C(=O)OC)[C@H]1C[C@H]23)Nc1ccc(C#N)cc14 :: 0.081
9. C/C=C1/CN2CC[C@]34c5cc(I)ccc5NC3C(C(=O)OC)[C@H]1C[C@H]24 (some centres undefined) :: 0.024
